meta.source: PubChem BioAssay AID1259407

System: CCRIS mutagenicity, Ames/micronucleus/aberration tests
Experiment: CCRIS mutagenicity studies
Conditions: Test System: AMES SALMONELLA TYPHIMURIUM; Strain/Indicator: TA98; Metabolic Activation: S-9; Method: PREINCUBATION
Active and inactive are the calls of the source. The rule behind the calls is not given here.
Hello, when you answer, please use one of the following outcomes: T = active, F = inactive

{"Molecule": "CNC(=O)c1c(N(C)N=O)ncn1C", "Target under test": "CCRIS mutagenicity, Ames/micronucleus/aberration tests", "Assigned label": "F"}
{"Molecule": "O=[N+]([O-])c1ccc2c(c1)Cc1cccc(O)c1-2", "Target under test": "CCRIS mutagenicity, Ames/micronucleus/aberration tests", "Assigned label": "T"}
{"Molecule": "CNNCc1ccc(C(=O)NC(C)C)cc1", "Target under test": "CCRIS mutagenicity, Ames/micronucleus/aberration tests", "Assigned label": "F"}
{"Molecule": "CCCCCCCCCc1ccc(O)cc1", "Target under test": "CCRIS mutagenicity, Ames/micronucleus/aberration tests", "Assigned label": "F"}
{"Molecule": "O=P1(N(CCCl)CCCl)NCCCO1 (configuration not stated)", "Target under test": "CCRIS mutagenicity, Ames/micronucleus/aberration tests", "Assigned label": "F"}
{"Molecule": "C=C1/C(=C\\C=C2/CCC[C@]3(C)[C@@H]([C@H](C)/C=C/[C@@H](O)C4CC4)CC[C@@H]23)C[C@@H](O)C[C@@H]1O", "Target under test": "CCRIS mutagenicity, Ames/micronucleus/aberration tests", "Assigned label": "F"}

Now look at this entry.
Entry `CC(C)(c1ccc(O)cc1)c1ccc(O)cc1` : call = ?
F
